Assay: yeast display, Sf9 membrane polyspecificity reagent, FACS + sequencing; frameworks hold sequencing errors
quantity kind: polyreactivity (PSR sort gate)

QVQLVESGGGLVQAGGSLRLICAASGRTFRGYTMGWYRQAPGKERELVAAITWSGGSTYYADSVKGRFTISRDNAKNTVYLQMNSLKPEDTAVYYCAATKYLSFLYDYWGQGTLVTVSS : high polyreactivity
QVQLVESGGDLVQAGGSLRLSCAASGITFRRYTMGWYRQAPGKERELVAAISSGGSTNYADSVKGRFTISRDNAKNTVYLQMNSLKPEDTAVYYCAATRRYIQYGYDYWGQGTQVTVSS : high polyreactivity

###

Experiment: yeast display, Sf9 membrane polyspecificity reagent, FACS + sequencing; frameworks hold sequencing errors
quantity kind: polyreactivity (PSR sort gate)

QVQLVESGGGLVQAGRSLRLSCAASGRIFSTNAMGRYRQAPGKERELVAAITRSSSTYYAYSVKGRFTISLDNAKNTVYLQINSLKPEDTAGYYCAASRFQYKSTQFYYWGQATQVTVSS : high polyreactivity
KVQLVESGAGLVQAGGSLRLSCAASGITFVRYVMGWYRQAPGKERELVAAISNSGGRTYYADSVKGRFTISRDNAKNTVYLQMNSLKPEDTAVYYCARRAGSYPYGYTGYDYWGQGTLVTVSS : high polyreactivity
QVQLVESGGGLVQAGGSLRLSCAASGLIYTPYAMGWYRQAPGKERELVAAINYGGSRTYYADSVKGRFTISRDNAKNTVYLQMNSLKPEDTAVYYCNKPGNYVWRRSWDFDYWGQGTQVTVSS : high polyreactivity
QVQLVESGGGLVQAGGSLRLSCAASGRIFDRYALGWYRQAPGTERELVAVISQSGGRTYYADSVKGRFTISRDNAKNTVYLEMNSLKPEDSAVYYCNKRYRNRYSYSEGDYWGQGTQVTVSS : high polyreactivity

Entry under review: QVQLVESGGGLVQARGSLRLSCASSGSIFGWNAMGGYRQAPGKERELVAAISSVGSTYYADSVKGRFTISRDNAKNTVYLQMNSLKPEDTAVYYCAAPVIQITDVWYDAETYPDYDYWGEGTQVTVSS . Reported polyreactivity (PSR sort gate)? low polyreactivity

Next entry: QVQIVESGGGLVQAGGSLRLSCAASGSTSVKYAMGWYRQAPGKERELVAAIRKRGDSTYYADSVKGRFTISRDYAKNTVYLQMNSLKPEDTAVYYFAAQYLRGRGYWGQGTQVTLSS low polyreactivity

Next entry: QVQLVESGGGLVQAGGSLRLSCAASGFTFLYNAMGWYRQAPGKERELVAAIDSGGNTNYADSVKGRFTISRDNAKNTVYLQMNSLKPEDTAVYYCAADVVSGGQGTADYDYWGQGTQVTVSS low polyreactivity

Next entry: QVQLVESGGGLVQAGGRLRLSCAASGSTFSWYVMGWYRQAPGKERELVAAITRGGGSTYYADSVKGRFTISRDNAKNTVYLQMNSLKPEDTAVYYCNADSNIPDYDYWGQGTQVTVSS low polyreactivity

Next entry: QVQLVESGGGLDQAGGSLRLSCAASVNIFIYNTMGWYRQAPGKERELVAAITSDDSTKYADSVKGRFTISRDNAKNPVYLQMNTLKPEDTAVYYCAKRYYHPYWIDYDYWGQGTHVTVSS low polyreactivity

Next entry: QVQLVESGGGLVQAGGSLRLSCAASGSTFRDNAMGWYRQAPGKERELVAAITVIDGTTYYADSVKGRFTISRDYAKNTVYLQMNSLKPEDTAVYYCADDTIWYEYYYWGQGTQVTVSS low polyreactivity

Next entry: QVQLVESGGGLDQAGGSLRLSCAASGSIFDRYAKGWYRQAPGTERELVASITWRATSTYYADSVKGRFTISRDNAKNTVYLKMNRLKPEETAVYYCAAAIAFGYRGTVAKYGYWGQGTQVTVSS low polyreactivity

Reference source for all entries: the nanobody polyreactivity screen of Harvey et al. (2022)
